# System: 362531-283-R-J2-PDC complex spheroid viability
# Assay: Anticancer human tumor 362531-283-R-J2-PDC patient-derived colon adenocarcinoma cell line growth inhibition [RAS]
# Assay Conditions: second compound 10 µM; first compound 0.1 µM; stronger effect = lower value
# Text: RAS pathway inhibitors in Combinations in Complex Spheroids A high-throughput screen of multi-cell type tumor spheroids was designed to identify active combinations of RAS pathway inhibitors and targeted small molecules. Complex spheroids include a stromal component modeled by human endothelial cells (HUVEC) and fibroblasts modeled by human mesenchymal stem cells (MSCs). […] Compounds. […] If the clinical Cmax for an agent had not been determined, the highest concentration tested was 10 microM. […]
Experimental Readout: viability, T/C (%)
Dear colleague, please return just the value in %, with no unit written.

Worked set:
C[C@@H](NC(=O)c1ncnc(N)c1Cl)c1ncc(C(=O)Nc2cc(C(F)(F)F)c(Cl)cn2)s1 + C#Cc1c(F)ccc2cc(O)cc(-c3ncc4c(N5CC6CCC(C5)N6)nc(OCC56CCCN5CC(F)C6)nc4c3F)c12 : 75.4
C=CC(=O)N1CCN(c2nc(OCC3CCCN3C)nc3c(F)c(-c4nc(N)cc(C)c4C(F)(F)F)c(Cl)cc23)C(C)C1 (stereo not given) + C#Cc1c(F)ccc2cc(O)cc(-c3ncc4c(N5CC6CCC(C5)N6)nc(OCC56CCCN5CC(F)C6)nc4c3F)c12 : 38.1
NC1c2ccccc2OC12CCN(c1cnc3c(N4CCCc5ncccc54)n[nH]c3n1)CC2 (stereo not given) + C#Cc1c(F)ccc2cc(O)cc(-c3ncc4c(N5CC6CCC(C5)N6)nc(OCC56CCCN5CC(F)C6)nc4c3F)c12 : 6.83
CCC(CC)c1cc(NC2CCC(N)C2)n2nccc2n1 (stereo not given) + C#Cc1c(F)ccc2cc(O)cc(-c3ncc4c(N5CC6CCC(C5)N6)nc(OCC56CCCN5CC(F)C6)nc4c3F)c12 : 49.4

// moving on: another record for viability, T/C
Request: Field: viability, T/C (362531-283-R-J2-PDC complex spheroid viability). Entry: CC(C)n1nc(-c2ccc3oc(N)nc3c2)c2c(N)ncnc21 + C#Cc1c(F)ccc2cc(O)cc(-c3ncc4c(N5CC6CCC(C5)N6)nc(OCC56CCCN5CC(F)C6)nc4c3F)c12
Result: 18.3

---

# Tested on: 362531-283-R-J2-PDC complex spheroid viability
# Assay: Anticancer human tumor 362531-283-R-J2-PDC cell line growth inhibition [RAS];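 also: spheroids exposed to the agents for 7 days before readout; luminescence viability as percent of DMSO vehicle control wells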
# Assay Conditions: second compound 0.01 µM; first compound 0.00316 µM; stronger effect = lower value
Recorded viability, T/C for the following compounds
Dear colleague, please return just the value in %, with no unit written.

Request: Field: viability, T/C (362531-283-R-J2-PDC complex spheroid viability). Entry: C=CC(=O)Nc1cc(Nc2nccc(-c3cn(C)c4ccccc34)n2)c(OC)cc1N(C)CCN(C)C + C=CC(=O)N1CCN(c2nc(OCC3CCCN3C)nc3c(F)c(-c4nc(N)cc(C)c4C(F)(F)F)c(Cl)cc23)C(C)C1
Result: 107

Request: Field: viability, T/C (362531-283-R-J2-PDC complex spheroid viability). Entry: O=C(c1ccc(F)c(F)c1Nc1ccc(I)cc1F)N1CC(O)([C@@H]2CCCCN2)C1 + C=CC(=O)N1CCN(c2nc(OCC3CCCN3C)nc3c(F)c(-c4nc(N)cc(C)c4C(F)(F)F)c(Cl)cc23)C(C)C1
Result: 100

Request: Field: viability, T/C (362531-283-R-J2-PDC complex spheroid viability). Entry: CC(C)n1nc(-c2ccc3oc(N)nc3c2)c2c(N)ncnc21 + C=CC(=O)N1CCN(c2nc(OCC3CCCN3C)nc3c(F)c(-c4nc(N)cc(C)c4C(F)(F)F)c(Cl)cc23)C(C)C1
Result: 105

Request: Field: viability, T/C (362531-283-R-J2-PDC complex spheroid viability). Entry: Nc1ccn(C2OC(CO)C(O)C2(F)F)c(=O)n1 (stereo not given) + C=CC(=O)N1CCN(c2nc(OCC3CCCN3C)nc3c(F)c(-c4nc(N)cc(C)c4C(F)(F)F)c(Cl)cc23)C(C)C1
Result: 93.5

Request: Field: viability, T/C (362531-283-R-J2-PDC complex spheroid viability). Entry: CCN1CCN(Cc2ccc(Nc3ncc(F)c(-c4cc(F)c5nc(C)n(C(C)C)c5c4)n3)nc2)CC1 + C=CC(=O)N1CCN(c2nc(OCC3CCCN3C)nc3c(F)c(-c4nc(N)cc(C)c4C(F)(F)F)c(Cl)cc23)C(C)C1
Result: 93.5
